All figures here come from PubChem BioAssay.

Test system: Sam68 (KHDRBS1)
Assay: Sam68 small-molecule binders, primary screen, biochemical, small-molecule microarray, 635 nm fluorescence (AID 1125);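 note: score merges 667 nm channel intensity with signal to noise over triplicate slides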
Conditions: small-molecule microarray binding, higher = more signal
composite z-score below 1 gives not satisfied; composite z-score at or above it gives satisfied.

1. C[C@]1(C(=O)NCC(F)(F)F)c2ccccc2C(=O)N(Cc2ccc(OC(F)(F)F)cc2)[C@H]1c1ccc(CO)cc1 | not satisfied
2. CN(C)CCCC[C@@H]1NC(=O)[C@H]2C[C@@H](C(=O)NCc3ccc(F)cc3)[C@@H](c3ccc(O)cc3)N2C1=O | satisfied
3. COC(=O)C1=CC(CCCO)=CC(C2CC2)N(Cc2cccc(OC(F)(F)F)c2)C=C1C(=O)OC (stereo unspecified) | satisfied

Task: // inclusive: composite z-score at least 1? input: COc1cc2c(cc1O)C(c1ccc(CN3CCCC3)cc1)N(Cc1cccc(OC(F)(F)F)c1)CC2 (stereo unspecified)
Output: not satisfied

Task: // inclusive: composite z-score at least 1? input: `C=CCOC(=O)[C@H]1[C@@H]2C(=O)O[C@@H](c3ccccc3)[C@@H](c3ccccc3)N2[C@@H](c2ccc(OCCOC(=O)[C@@H]3C[C@@H]4C(=O)N[C@@H](CC(C)C)C(=O)N4[C@@H]3c3ccc(O)cc3)cc2)[C@]12C(=O)Nc1ccc(I)cc12`
Output: satisfied

Task: // inclusive: composite z-score at least 1? input: C=CCC(OC(C)=O)[C@@H]1[C@@H](N(Cc2ccc(-c3cccc(C(F)(F)F)c3)o2)C(=O)Cc2ccc(OC)cc2)c2cc(OCCCO)ccc2N1C(=O)c1ccc2ccccc2n1 (stereo partly specified)
Output: not satisfied

====

Assay: basal HepG2 mitochondrial membrane potential changes, profiling panel, cell-based, JC-1 fluorescence, 24 h, 100 nL compound (AID 1167); note: test concentration not given here
Conditions: higher = more signal
Quantity Measured: z-score
Please reply with the number alone, leaving off any unit.

Known results for compounds:
1. N#Cc1ccc(C(O)C2C=CC3C(=O)NC(=O)C3N2Nc2ccccn2)cc1 (configuration not stated) | -0.183
2. COC(=O)[C@@]1(Cc2ccccc2)[C@H]2c3cc(C(=O)N4CCCC4)n(Cc4ccc(C(F)(F)F)nc4)c3C[C@H]2CN1C(=O)c1ccccc1 | 1.5
3. C=CCC(OC(C)=O)[C@@H]1[C@@H](N(Cc2cccc3ccccc23)C(=O)c2ccc(-c3ccccc3)cc2)c2cc(OCCCO)ccc2N1C(=O)c1ccc2ccccc2n1 (some centres not stated) | 1.08
4. CCCCC(=C=CC[C@@H](O)c1cccc(OCCO)c1)C[C@@H](O)COCc1ccccc1 | -0.0343
5. O=C1N(Cc2ccccc2)c2ccccc2[C@H]2OC(c3ccc(OCCCO)cc3)=N[C@@]12Cc1ccccc1 | -0.67

Task: Specify z-score for C[C@H]1C2[C@H](Cc3ccccc3)NC(=O)[C@]23C(=O)NCC(=O)N2CCC[C@H]2C(=O)NC/C=C\C/C=C/C3[C@@H]2O[C@]12C (some centres not stated) and stop.
Output: -0.324

Task: Specify z-score for `CCOC(=O)C[C@H]1[C@H](OC(=O)Cc2ccc3c(c2)OCO3)[C@@H](NC(=O)c2ccccc2)c2cc(OCCCO)ccc2N1C(=O)Cc1ccc(OC)cc1` and stop.
Output: 1.53

====

The entries below come with measured z-score values attached.
Experiment: PSAC antagonists in infected red cells, primary screen, cell-based, P. falciparum Indochina, OD700, 1 h (AID 1154)
Details: P. falciparum Indochina infected RBC osmotic lysis, higher = more signal, called active from +8 up or from −8 down
Please reply with the number alone, leaving off any unit.

Known results for compounds:
1. CC(C)CNC(=O)[C@@]1(C)c2ccccc2C(=O)N(Cc2cc(F)cc(C(F)(F)F)c2)[C@H]1c1ccc(CO)cc1 | 2.26
2. COC(=O)C1=CC(CCCO)=CC(c2ccc(CN3CCCC3)cc2)N(Cc2sc3ccccc3c2Cl)C=C1C(=O)OC (stereo not drawn) | 3.27

Attention now shifts to the item below.
Task: Specify z-score for `COCCOC(=O)N1C(=O)[C@@]2(c3cc(C#CCCO)ccc31)[C@H](c1ccc(O)cc1)N1[C@H](c3ccccc3)[C@H](c3ccccc3)OC(=O)[C@H]1[C@@H]2C(=O)N1CCc2cc(OC)c(OC)cc2C1` and stop.
Output: 1.22
